assay: NCI Yeast Anticancer Drug Screen. Data for the mec2-1 strain (AID 157); settings: S. cerevisiae mec2-1 strain, at 50.0 µM (retest, dose inferred, filed as 5.0), active compounds read high
This is part of a sample that, as a whole, favours compounds with a hit. Of some 79,000 tested, about 15% had one in any assay.
Each entry gets F if its growth inhibition stays under 20%, and T if its growth inhibition is 20% or above.

[
  {
    "compound": "OCCC(CCN1CCOCC1)(c1ccccc1)C1(O)CCCC1 (stereo unspecified)",
    "labelClass": "F"
  },
  {
    "compound": "OCCCCCCCCCl",
    "labelClass": "F"
  },
  {
    "compound": "Nc1ccc(-c2ccc(N)cc2S(=O)(=O)O)c(S(=O)(=O)O)c1",
    "labelClass": "F"
  },
  {
    "compound": "Cc1c2ccccc2c(=O)n2c(-c3ccccn3)cccc12",
    "labelClass": "F"
  }
]

Ask: Check this compound for growth inhibition at or above 20%: `CCCc1cc2c(cc1O)CC[C@@H]1[C@@H]2CC[C@]2(C)[C@@H](O)CC[C@@H]12`
Reply: T

Ask: How about `C/C=C/C=N/N(c1nnc(-c2ccccc2)c(-c2ccccc2)n1)S(=O)(=O)c1ccc(C)cc1` ?
Reply: T

Ask: How about `CC(=O)N(O)c1ccc2c(c1)Cc1cc(F)ccc1-2` ?
Reply: T

Ask: How about CCCCCN(CCCCC)CC(C)(C)C(O)c1ccc(OC)c2ccccc12 (stereo unspecified) ?
Reply: F

Ask: How about `CCCCCCCC(=O)/C=C/c1ccc(C)cc1` ?
Reply: F

Ask: How about `c1ccc(-c2cc(N3CCCCC3)c(-c3ccccc3)o2)cc1` ?
Reply: F

Ask: How about `CN(C)N=Nc1ccc2[nH]c(=O)[nH]c2c1` ?
Reply: F

====

assay: NCI Yeast Anticancer Drug Screen. Data for the cln2 rad14 strain (AID 165);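 note: 0% = growth equal to vehicle treated cultures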; settings: S. cerevisiae cln2 rad14 strain, at 5.0 µM (retest, dose inferred, filed as 0.5), active compounds read high
The panel holds about 79,000 compounds, 15% with a hit somewhere; the sample as a whole holds those more often.
Reported growth inhibition by item:
Express it in %; write the number only.

Answered examples (3):
[
  {
    "compound": "COc1ccc(/C=C/c2ccnnc2)c(OC)c1OC",
    "growth inhibition (%)": -4
  },
  {
    "compound": "COc1cc(C(c2cc3c(cc2OC(C)=O)OCO3)C(C(C)=O)C(C)=O)cc(OC)c1OC(C)=O (stereo not given)",
    "growth inhibition (%)": -1
  },
  {
    "compound": "C=CCNC(=O)NC(=O)CSC1=NNC2(C(=O)N1)c1ccccc1-c1ccccc12",
    "growth inhibition (%)": 2
  }
]

Ask: Field request: growth inhibition | item: `CCOC(=O)C1=C(C)NC(C)=C(C(=O)OCC)C1c1c(-c2ccccc2)noc1C`
Reply: 0

Ask: How about O=C(O)C(Cc1ccc(O)cc1)NC(=O)N(c1ccccc1)c1ccccc1 (stereo not given) ?
Reply: 3

====

assay: NCI Yeast Anticancer Drug Screen. Data for the bub3 strain (AID 167); conditions: S. cerevisiae bub3 mutant strain, at 50.0 µM, active compounds read high
About 79,000 compounds went through this panel and 15% of them were active in at least one assay; those are over-represented in the sample as a whole.
assayMetric: growth inhibition (%)
Express it in %; write the number only.

Ask: Field request: growth inhibition | item: `O=C(O)c1cc(Br)ccc1OCc1ccc(Cl)cc1`
Reply: -2.25

Ask: How about `O=C(CSc1nnc(-c2ccc(N=Cc3ccc(Cl)cc3)cc2)o1)Nc1ccccc1Cl` ?
Reply: -11.8

Ask: How about `COc1ccc(N=Nc2ccc3oc(=O)c(C(=O)Nc4ccc(OC)cc4)cc3c2)cc1` ?
Reply: 95.3

Ask: How about `CNC(=S)/N=c1/sc([N+](=O)[O-])c(C)n1C` ?
Reply: 44.9

Ask: How about `COc1ccc2nc3cc([N+](=O)[O-])ccc3c(NCCO)c2c1` ?
Reply: 49

Ask: How about COC(=O)C12OCC34C(CC5C(C)C6=CC(=O)OC6=CC5(C)C3C(O)C1O)OC(=O)C(O)C24 (stereo unspecified) ?
Reply: 89.3
